- tested_target: OCT2 (Homo sapiens, UniProt O15244)
- Sequence (O15244 whole entry): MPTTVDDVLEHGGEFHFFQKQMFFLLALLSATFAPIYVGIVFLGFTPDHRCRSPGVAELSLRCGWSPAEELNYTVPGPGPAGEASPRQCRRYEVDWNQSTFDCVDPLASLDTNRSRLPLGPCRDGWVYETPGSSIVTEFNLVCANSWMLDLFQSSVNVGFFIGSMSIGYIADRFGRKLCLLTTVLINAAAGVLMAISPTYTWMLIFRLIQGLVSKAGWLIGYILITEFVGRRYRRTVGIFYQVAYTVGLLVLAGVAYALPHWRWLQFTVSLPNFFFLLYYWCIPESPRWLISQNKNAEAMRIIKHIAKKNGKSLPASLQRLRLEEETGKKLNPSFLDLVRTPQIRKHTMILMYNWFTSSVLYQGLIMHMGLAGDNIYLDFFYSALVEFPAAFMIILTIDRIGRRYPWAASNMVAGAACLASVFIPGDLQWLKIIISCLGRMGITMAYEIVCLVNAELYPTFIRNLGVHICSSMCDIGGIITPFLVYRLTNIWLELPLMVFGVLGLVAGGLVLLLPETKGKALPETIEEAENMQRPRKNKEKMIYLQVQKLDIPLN
- test_protocol: Inhibition of model substrate uptake in OCT2-overexpressing HEK293 cells
- experimental_setup: IC50, OCT2, Table S5; 2 μM ASP+ as model substrate, 5 min
measurement_kind: IC50 (µM)
Give a bare numeral; the unit µM is implied.

Query: State the recorded IC50 for this entry: CC(C)(C)NC[C@H](O)COc1nsnc1N1CCOCC1 [(S)-Timolol]
Reply: 60.2

Query: Can you share its IC50? I mean this compound: Cc1ccc(O)c([C@@H](CCN(C(C)C)C(C)C)c2ccccc2)c1 [(S)-Tolterodine]
Reply: 0.13

Query: Bench note: what IC50 did OC[C@@H](O)CN1CCN(c2ccccc2)CC1 [(S)-Dropropizine] show?
Reply: 55.6

Query: Using the record for CNCC[C@@H](Oc1ccccc1C)c1ccccc1 [(R)-Tomoxetine] , report its IC50.
Reply: 6.3

Query: For CNCC[C@H](Oc1ccccc1C)c1ccccc1 [(S)-Tomoxetine] , what is its reported IC50?
Reply: 17.1

Query: Any idea what IC50 was measured for OC[C@H](O)CN1CCN(c2ccccc2)CC1 [(R)-Dropropizine] ?
Reply: 80.6

Query: Data request, read-out IC50, for CCCN[C@@H]1CCc2nc(N)sc2C1 [(R)-Pramipexole]
Reply: 20.4

Query: Can you share its IC50? I mean this compound: CC(C)(C)NC[C@@H](O)COc1nsnc1N1CCOCC1 [(R)-Timolol]
Reply: 121

Query: I am curious: what IC50 value has been reported for C#CCN(C)[C@H](C)Cc1ccccc1 [(R)-Deprenyl] ?
Reply: 2.4

Query: # IC50 lookup, item CCN(CC)CC#CCOC(=O)[C@@](O)(c1ccccc1)C1CCCCC1 [(S)-Oxybutynine]
Reply: 20.1

* * *

- tested_target: UniProt:O15245
- test_protocol: Inhibition of model substrate uptake in OCT1-overexpressing HEK293 cells
- Assay type: cell-based
- Set-up: expressed in transfected cells; host or cells: HEK293
- experimental_setup: OCT1, Table S5; 2 μM ASP+ or ethambutol as model substrate, 5 min; read-out: IC50
Exercise: state measured pIC50 for each of the molecules provided.
Please keep in mind that pIC50 is minus log10 of the molar concentration; only the number is needed.

Query: Returns the measured pIC50 for the input molecule. Input: CCCN[C@@H]1CCc2nc(N)sc2C1 [(R)-Pramipexole]
Reply: 4.69

Query: May I ask what pIC50 has been recorded for CN(C)CCO[C@@](C)(c1ccccc1)c1ccccn1 [(S)-Doxylamine] ?
Reply: 4.49

Query: Item under review: CN(C)CCO[C@](C)(c1ccccc1)c1ccccn1 [(R)-Doxylamine] . Reported pIC50?
Reply: 4.65

Query: Using the record for CCCN[C@H]1CCc2nc(N)sc2C1 [(S)-Pramipexole] , report its pIC50.
Reply: 4.49

* * *

- tested_target: OCT1 (Homo sapiens, UniProt O15245)
- Sequence (O15245 whole entry): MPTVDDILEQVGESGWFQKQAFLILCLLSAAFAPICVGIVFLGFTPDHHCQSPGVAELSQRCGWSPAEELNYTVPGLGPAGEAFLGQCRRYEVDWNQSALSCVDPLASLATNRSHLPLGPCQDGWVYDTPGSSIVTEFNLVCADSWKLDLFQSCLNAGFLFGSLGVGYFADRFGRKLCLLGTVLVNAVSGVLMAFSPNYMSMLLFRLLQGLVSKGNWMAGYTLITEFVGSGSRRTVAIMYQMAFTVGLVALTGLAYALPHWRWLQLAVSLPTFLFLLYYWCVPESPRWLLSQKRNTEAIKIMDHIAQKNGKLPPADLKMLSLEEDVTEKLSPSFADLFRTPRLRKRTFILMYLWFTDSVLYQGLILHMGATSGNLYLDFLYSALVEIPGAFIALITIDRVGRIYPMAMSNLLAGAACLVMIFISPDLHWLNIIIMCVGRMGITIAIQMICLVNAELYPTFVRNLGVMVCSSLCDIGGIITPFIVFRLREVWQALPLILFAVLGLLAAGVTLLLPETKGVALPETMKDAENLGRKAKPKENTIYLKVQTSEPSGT
- test_protocol: Inhibition of model substrate uptake in OCT1-overexpressing HEK293 cells
- Type: cell-based
- Design: expressed in transfected cells; host or cells: HEK293
- experimental_setup: human, pH 7.4, (S,S)-Ethambutol inhibition [%], OCT1; 20 μM inhibitor, 2 μM (S,S)-ethambutol, 5 min
- Procedure: Koepsell and Gorbulev (University of Würzburg, Germany). Fluorescence quantification was performed in technical duplicates.
measurement_kind: inhibition at 5 min, 20 μM (%)
Answer format: numeric, % implied, no suffix.

Query: Returns the measured inhibition at 5 min, 20 μM for the input compound. Input: O=C(OC1C[N+]2(CCCOc3ccccc3)CCC1CC2)C(O)(c1cccs1)c1cccs1 [(R)-Aclidinium]
Reply: 98.8
